// provenance: paper PMC4865847

- SYSTEM NAME: S. aureus PhoR (PhoR^S) (Staphylococcus aureus)
- Sequence (Q2FXN7 entry or part of it): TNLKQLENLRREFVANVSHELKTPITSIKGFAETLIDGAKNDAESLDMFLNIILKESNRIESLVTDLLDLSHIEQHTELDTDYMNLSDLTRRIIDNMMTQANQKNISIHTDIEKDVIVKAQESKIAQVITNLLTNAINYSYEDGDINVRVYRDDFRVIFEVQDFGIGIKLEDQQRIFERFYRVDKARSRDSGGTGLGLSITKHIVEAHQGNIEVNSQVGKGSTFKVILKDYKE
- METHOD SUMMARY: In vitro autophosphorylation kinase assay with γ-32P-ATP, PhoR^S
- Format: biochemical
- TEST PARAMETERS: IC50 PhoR^S, autophosphorylation, one time point (30 sec), 10% DMSO
pIC50: −log10 of the molar value.
So I've got a bunch of compounds here, and I need their pIC50 values.

Solved cases below.
* COc1cc(NCc2ccccc2)ccc1NC(C)=O [S1.18] | < 2.70
* CC(=O)Nc1ccc(C(=O)C(O)c2ccc(NC(C)=O)cc2)cc1 (stereo not shown) [S1.12] | < 2.70
* O=C(CCN1c2ccccc2Sc2ccccc21)OCc1cc(=O)n2ccsc2n1 [S1] | < 2.30

Dear colleague, could you send me pIC50 for each of the items below? Thanks.
1. CC(=O)Nc1ccc2c(c1)C(=Nc1ccc(F)cc1)c1ccccc1-2 [S1.10]
2. CC(NCc1cccc(F)c1)c1ccc2ccccc2c1 (stereo not shown) [S10]

Resp:
< 2.70
< 2.30

Dear colleague, could you send me pIC50 for each of the items below? Thanks.
1. CC(OC(=O)c1cccc(S(=O)(=O)N2CCc3ccccc3C2)c1)C(=O)NC(N)=O (stereo not shown) [S2]
2. CC(=O)Nc1ccc(C(O)c2ccc(NC(C)=O)cc2)cc1 [S1.6]

Resp:
< 2.30
< 2.70

---

- Test system: Stenotrophomonas maltophilia
- METHOD SUMMARY: Antibacterial susceptibility testing (MIC), S. maltophilia
- Assay type: cell-based
- TEST PARAMETERS: clinical isolate B6/2, read-out: MIC S. maltophilia B6/2
So I've got a bunch of compounds here, and I need their MIC values.

Solved cases below.
• CC(C)NCC(O)COc1cccc2[nH]c3ccccc3c12 (stereo not shown) = 500 µg/mL
• CC(=O)Nc1cccc(-c2ccccc2Cl)c1 [S1.7, N-[3-(2-chlorophenyl)phenyl]acetamide] = > 500 µg/mL
• CC(C)(C)c1ccc(O)c(CNc2ccccc2)c1 = 500 µg/mL

Let us move to another entry and its MIC.
Req: Recorded MIC for `CC[C@H](c1ccc(O)cc1)[C@@H](CC)c1ccc(F)cc1` , please?
Resp: > 500 µg/mL

---

So I've got a bunch of compounds here, and I need their IC50 values.
- SYSTEM NAME: E. coli PhoR (PhoR^E) (Escherichia coli)
- Construct: The catalytic portion (DHp and CA domain) of E. coli PhoR (PhoR^E); made in house; host or cells: E. coli RIL
- Sequence (P08400 210-425): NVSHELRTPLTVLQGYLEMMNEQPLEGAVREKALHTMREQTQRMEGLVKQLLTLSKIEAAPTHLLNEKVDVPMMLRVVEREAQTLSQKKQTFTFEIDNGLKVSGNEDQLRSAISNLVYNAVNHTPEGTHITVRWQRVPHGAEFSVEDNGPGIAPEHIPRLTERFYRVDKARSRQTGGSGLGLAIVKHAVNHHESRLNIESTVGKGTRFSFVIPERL
- METHOD SUMMARY: In vitro autophosphorylation kinase assay with γ-32P-ATP, PhoR^E
- Format: biochemical
- TEST PARAMETERS: autophosphorylation, one time point (30 sec), 10% DMSO; read-out: IC50 PhoR^E

- CC(C)(C)c1ccc(O)c(CNc2ccccc2)c1 [S1.14]: > 2000 µM
- Nc1nccc(Nc2ccc(Br)cc2)n1 [F1.8]: ≤ 1000 µM
- CC(C)NCC(O)COc1cccc2[nH]c3ccccc3c12 (stereo not shown) [F2.4]: > 2000 µM
- Oc1cccc2[nH]c3ccccc3c12 [F2.8]: 720 µM
- CC[C@H](c1ccc(O)cc1)[C@@H](CC)c1ccc(F)cc1 [S1.13]: 16 µM
- Nc1nc(-c2ccc(O)cc2)cs1 [F1.1]: > 2000 µM

Dear colleague, could you send me IC50 for each of the items below? Thanks.
1. Nc1nc(-c2ccccc2Cl)cs1 [F1.6]
2. c1ccc2c(c1)[nH]c1ccccc12 [F2.5]

Resp:
["> 2000 µM", "> 2000 µM"]

Dear colleague, could you send me IC50 for each of the items below? Thanks.
1. Oc1ccc2c(c1)[nH]c1ccccc12 [F2, 2-hydroxy-carbazole]
2. c1ccc2[nH]ccc2c1 [F2.7]
3. CC(=O)Nc1ccc2c(c1)Cc1cc(Br)ccc1-2 [S1.20]
4. Cn1c2ccccc2c2ccccc21 [F2.6]
5. Nc1ccc2c(c1)[nH]c1ccccc12 [F2.1]

Resp:
1: 300 µM; 2: > 2000 µM; 3: > 2000 µM; 4: > 2000 µM; 5: 240 µM
